The reader will find reported soluble fraction (log2) values listed item by item below.
Protocol: soluble fraction after stress (log2 fold change); higher = more stays soluble; pooled small domains, quantitative proteomics
Experimental Context: stress: 50 degC

Take a look at these entries with their results.
[
  {
    "Sequence Record": "HMQSNIHELQKKLNEALQALSEDHRAVVTMFDIQGMPHAEISKILGVSEGTVRSRLYYAHQQLQGHL",
    "Recorded Result": -1.03
  },
  {
    "Sequence Record": "HMIAASQVLRDARQRSRLTQAELGRRADVPQSVISAYESARREPSVDMLARLVAAAGFDLRIGLTP",
    "Recorded Result": -0.541
  },
  {
    "Sequence Record": "HMKILKQLEAIIEKEGLNESAKQFYLREISELDKEKQQEIINLVDKMEQAGFKNNLASAFSEVTEDIPQF",
    "Recorded Result": -0.0195
  }
]

Next item in the queue.
soluble fraction (log2) for HMEGIAYDINTAPEHIDLKAEDMMATFNIGKTALWRWVKQKILPPPYEYRSQAAHWTIGQIRDWKTA ?
-0.0672

====

Protocol: soluble fraction after stress (log2 fold change); higher = more stays soluble; pooled small domains, quantitative proteomics
Experimental Context: stress: 50 degC
Below: a set of entries, each annotated with reported soluble fraction (log2).
Give a plain numeric answer without units written out.

soluble fraction (log2) lookup needed for HMALMLGGLIVYLNTTAPRDDIDLIELSKDTKAMAAFGNKLASPDYNGKQFALDWHELSRDEIMSKYFS , thanks.
-0.987

Need soluble fraction (log2) of HMAALKVAVLTVSDTRTQETDTSGAFLEGALREAGHEIADRQIVIDDVYQLRAIVSQWIADPEVEVILT , thanks.
-0.217

What does the record list as soluble fraction (log2) for HMAPSLSEYAYEEIKHAIERGVYPPGAKLITQEIADRLGISRTPVVAAVNRLTAEGYADAVPQHGIFVK ?
0.0573

# get_value(readout='soluble fraction (log2)', item= HMRKDWTPGAFVEAFVNDTPATRSTILAKAVSAGLSRWAADNLLRTADNDGLMVRQGSGKRNEPFTYRRGP )
-0.196

====

Protocol: soluble fraction after stress (log2 fold change); higher = more stays soluble; pooled small domains, quantitative proteomics
Experimental Context: stress: 50 degC
Assay Metric: soluble fraction (log2)
Could you keep your reply to the number by itself?

Recorded results for 3 sequences are shown here.
[
  {
    "Sequence Record": "HMNEMEWVAKLIDQLPERERMILQLREIEQYEFDQIASLMEIPEGTVRVYLSRIRKKIKKQFIEIQSH",
    "soluble fraction (log2)": 0.0739
  },
  {
    "Sequence Record": "HMQSKDDLLDTFRVVKGNAALLNDQNKKLIRSLKVSSFGFTGITDQAAEVKKEMPDVLLEKASIEDILF",
    "soluble fraction (log2)": -0.12
  },
  {
    "Sequence Record": "HMAEMLENQLKHAKSKQEANEYIAAAIGGVSDDDPDKEYLVAAYNEISKEFHHSSAYHRLPDT",
    "soluble fraction (log2)": -0.0511
  }
]

GET /values?readout=soluble fraction (log2)&item= HMQEAGLITQRIREMREKENWTQEYMAEQLGMSENGYAKIERGESNLSLKRLQQIADIFEVESAELLK
0.0493

Name the recorded soluble fraction (log2) for HMENDGQFLRAEREKYGLTLTDIYEHTHIPIKKLKAYEMWEEEMPPRTRALLELYFDQVAFEYDS .
-0.8

Record request: soluble fraction (log2) value, item HMPATTMMVVVDRDLPYGHVLTDRDVRLETRRATSPGASVAFTSIDPVLGQSLTRPLGAGTPVGRADLR
-0.155

Find the recorded soluble fraction (log2) belonging to HMARTGSEELVGALATVREPLAPWGQVFVQGALWRARSADGGPVDAGQQVVVRAVEGLTLVVEPRD and report it.
0.00428

Data request, read-out soluble fraction (log2), for HMHANAALTPRQRLRLAQKIVDEEWTVAAAADYFRVSWPTAAKWARRYVELGEAGMADRSSRP
-2.1
